Biological target: GST-Nv-NF-kB (Cys allele) (Nematostella vectensis, UniProt E5G601 2-411)
Sequence: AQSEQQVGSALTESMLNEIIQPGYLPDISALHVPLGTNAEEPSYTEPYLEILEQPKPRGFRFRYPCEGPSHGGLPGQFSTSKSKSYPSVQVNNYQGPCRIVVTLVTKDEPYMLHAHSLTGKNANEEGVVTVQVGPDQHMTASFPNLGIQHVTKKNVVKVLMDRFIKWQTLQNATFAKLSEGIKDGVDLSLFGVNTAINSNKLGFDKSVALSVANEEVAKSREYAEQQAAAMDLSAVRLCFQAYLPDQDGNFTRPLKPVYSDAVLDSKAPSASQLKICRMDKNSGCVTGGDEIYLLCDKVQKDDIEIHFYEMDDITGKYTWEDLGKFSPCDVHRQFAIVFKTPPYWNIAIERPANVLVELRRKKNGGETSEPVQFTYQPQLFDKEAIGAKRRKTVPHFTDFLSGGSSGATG
Assay: protein-binding microarray (PBM); PBM: ~300 nM protein, 6 mM HEPES pH 7.8, 80 mM KCl, 0.5 mM EDTA, 0.5 mM EGTA, 6% glycerol, 35 ng/ul poly-dIdC, 1% milk, 1 h, room temperature; Ap Aiptasia and Nv Nematostella (sea anemones) / Co Capsaspora / Aq Amphimedon (sponge) / Dm Drosophila / Hu human; RHD is the Rel homology domain; high values mean tight binding
Conditions: dsDNA, one strand shown
# binding signal listing for each entry below
# number only, unit z-score dropped from output

Take a look at these entries with their results.
>>> df
                           ordered_residues                               target_desc  reported_property  unit_abbrev  reported_value
0  CCGATTAACATCATATTGGGAAATGATGTTAATCGGGTCTTGATTCGCTTGACGCTGCTG  GST-Nv-NF-kB (Cys allele) (Nematostella vectensis, UniProt E5G601 2-411)     binding signal      z-score            2.26
1  CCGATTAACATCATGAAGACCCCTGATGTTAATCGGGTCTTGATTCGCTTGACGCTGCTG  GST-Nv-NF-kB (Cys allele) (Nematostella vectensis, UniProt E5G601 2-411)     binding signal      z-score            1.18
2  CCGATTAACATCAAGGATTCCCGTGATGTTAATCGGGTCTTGATTCGCTTGACGCTGCTG  GST-Nv-NF-kB (Cys allele) (Nematostella vectensis, UniProt E5G601 2-411)     binding signal      z-score            3.43

Entry under test: `CCGATTAACATCAGGGGGTGGTATGATGTTAATCGGGTCTTGATTCGCTTGACGCTGCTG` . Its binding signal was 2.77

binding signal in this record for `CCGATTAACATCAAGGGGGTACTTGATGTTAATCGGGTCTTGATTCGCTTGACGCTGCTG` : 3.89

Value of binding signal reported for the sequence `CCGATTAACATCAGGGGGGGTGATGATGTTAATCGGGTCTTGATTCGCTTGACGCTGCTG` is 4.08

binding signal in this record for `CCGATTAACATCAGGGAGTCACCTGATGTTAATCGGGTCTTGATTCGCTTGACGCTGCTG` : 1.16

Record `CCGATTAACATCAGAAGTTCCCATGATGTTAATCGGGTCTTGATTCGCTTGACGCTGCTG` . Reported binding signal: 2.3

// binding signal value for `CCGATTAACATCAGGGAGCTACCTGATGTTAATCGGGTCTTGATTCGCTTGACGCTGCTG` : 1.88
